# method.summary: NCI Yeast Anticancer Drug Screen. Data for the sgs1 mgt1 strain (AID 161);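 further: 0% = growth of cultures given vehicle only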
# details: S. cerevisiae sgs1 mgt1 strain, at 50.0 µM (retest, dose inferred, filed as 5.0), stronger effect = higher value
The panel holds about 79,000 compounds, 15% with a hit somewhere; the sample as a whole holds those more often.
parameter.measured: growth inhibition (%)
A number alone suffices; assume %.

Example cases with answers are listed next.
1) CCOC(=O)C(Cl)C(Cl)C(=O)OCC (stereo unspecified) = 99
2) COP(=O)(OC)OCC1OC(n2cnc3c(N)ncnc32)C(O)C1O (stereo unspecified) = -2
3) CC(=O)Nc1ccc(N=Cc2cc(Cl)cc(Cl)c2O)cc1 = 95
4) COc1ccccc1C(=O)Nc1ccc(Cl)c(C(=O)OC(C)C)c1 = -32

Kindly note the recorded growth inhibition for `O=C1C=CC(=O)N1CCc1ccccc1` , which is 98

Kindly note the recorded growth inhibition for `COc1ccc(/C=N/Nc2cc(C)nc3cc4c(cc23)OCO4)c2ccccc12` , which is 91
